# system: human GLP-1 receptor (human, UniProt P43220)
# testProtocol: displacement of [125I]-GLP-1-(7-36)NH2 from membranes with human GLP-1 receptor, SPA, high HSA (2.0%)
*1 amine or outer side, *2 acyl side, *3 side chain or, on linkers, in order; H or OH if unused. Where no end group is shown, it is not given here. Side-chain parts run from the residue outwards. [ ]: non-standard residue; d: D form. The star is where a group is joined. Dodecanoyl(12-OPh(4-COOH)) = O=C(O)c1ccc(OCCCCCCCCCCCC(=O)*)cc1; Undecanoyl(11-OPh(4-COOH)) = O=C(O)c1ccc(OCCCCCCCCCCC(=O)*)cc1; Decanoyl(10-O(3-COOH-Ph)) = O=C(O)c1cccc(OCCCCCCCCCC(=O)*)c1; γGlu = O=C(O)[C@H](CCC(=O)[*:2])N[*:1]; C14 diacid = O=C(O)CCCCCCCCCCCCC(=O)*; AEEA = NCCOCCOCC(=O)O; Aib = CC(C)(N)C(=O)O
measure: pIC50
Remember, pIC50 is on a log scale: it is -log10 of the molar concentration.

Qu. Return reported pIC50; argument: H[Aib]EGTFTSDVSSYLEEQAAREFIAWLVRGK([AEEA-AEEA-AEEA-γGlu-C14 diacid])K([AEEA-AEEA-AEEA-γGlu-C14 diacid]) [GLP-1 derivative of Example 12]
Ans. 7.15

Qu. Return reported pIC50; argument: H[Aib]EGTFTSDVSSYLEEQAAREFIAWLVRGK([AEEA-AEEA-γGlu-C14 diacid])K([AEEA-AEEA-γGlu-C14 diacid]) [GLP-1 derivative of Example 5]
Ans. 6.84

Qu. Return reported pIC50; argument: H[Aib]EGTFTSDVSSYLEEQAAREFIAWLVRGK([AEEA-AEEA-γGlu-Dodecanoyl(12-OPh(4-COOH))])K([AEEA-AEEA-γGlu-Dodecanoyl(12-OPh(4-COOH))]) [GLP-1 derivative of Example 26]
Ans. 6.44

Qu. Return reported pIC50; argument: H[Aib]EGTFTSDVSSYLEEQAAREFIAWLVQGK([AEEA-AEEA-γGlu-Undecanoyl(11-OPh(4-COOH))])K([AEEA-AEEA-γGlu-Undecanoyl(11-OPh(4-COOH))]) [GLP-1 derivative of Example 7]
Ans. 6.63

Qu. Return reported pIC50; argument: HGEGTFTSDVSSYLEEQAAREFIAWLVRGK([AEEA-AEEA-γGlu-Undecanoyl(11-OPh(4-COOH))])K([AEEA-AEEA-γGlu-Undecanoyl(11-OPh(4-COOH))]) [GLP-1 derivative of Example 17]
Ans. 6.27

Qu. Return reported pIC50; argument: H[Aib]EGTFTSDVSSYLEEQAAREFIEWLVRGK([AEEA-AEEA-γGlu-Decanoyl(10-O(3-COOH-Ph))])K([AEEA-AEEA-γGlu-Decanoyl(10-O(3-COOH-Ph))]) [GLP-1 derivative of Example 27]
Ans. 6.32
